system: Plasmodium berghei; test: Luciferase/luciferin-expressing antifolate-resistant parasites were used to infect a culture of HepG2 cells that were pre-incubated with compounds. Infected hepatocytes emit light due to the luciferase reaction. Assay results are presented as the percent inhibition of light emission compared to control. […]; type: functional; conditions: sporozoite, HEPG2TOX_HILL_SLOPE 16.7, HEPG2TOX_R_SQUARED 0.933, PBLUC_HILL_SLOPE 4.05, PBLUC_R_SQUARED 0.109, read-out: LUCIFERASE INFECTION ASSAY - IC50
pIC50: −log10 of the molar value.
recorded.endpoint: pIC50

>>> df
                           smiles_structure  value_observed
0  O=c1[nH]c2ccc(-c3csc(Nc4ccc(Cl)cc4)n3)cc2o1            5.11
